- target: T1, human GLP-1 receptor (human, UniProt P43220 24-463)
- T1 construct: whole, on cells
- assayNotes: SPA competition vs 125I-GLP-1(7-36)NH2, hGLP-1R BHK membranes, high HSA (2.0%)
*1 amine or outer side, *2 acyl side, *3 side chain or, on linkers, in order; H or OH if unused. Where no end group is shown, it is not given here. Side-chain parts run from the residue outwards. [ ]: non-standard residue; d: D form. The star is where a group is joined. code 2xAEEA = O=C(COCCOCCN[*:1])NCCOCCOCC(=O)[*:2]; C20 diacid = O=C(O)CCCCCCCCCCCCCCCCCCC(=O)*; γGlu = O=C(O)[C@H](CCC(=O)[*:2])N[*:1]; Trx = NC[C@H]1CC[C@H](C(=O)O)CC1; code LysOEG = not defined here; Lys(Bis) = not defined here; AEEA = NCCOCCOCC(=O)O; Aib = CC(C)(N)C(=O)O
measuredQuantity: IC50 (nM)
Form entry: value (nM) — number only.

H[Aib]EGTFTSDVSSYLEEQAAREFIAWLVRGRGSSGAPK([Lys(Bis)-code 2xAEEA-AEEA-γGlu-Trx-C20 diacid]) (reading uncertain, Side chain read from the name: eps-Lys(Bis) branched linker, each leg C20 diacid-Trx-gGlu-2xOEG)    28
H[Aib]EGTFTSDVSSYLEEQAAREFIAWLVRGRPK([code LysOEG-AEEA-AEEA-AEEA-AEEA-AEEA-γGlu-Trx-C20 diacid)(OEG-AEEA-AEEA-AEEA-AEEA-AEEA-γGlu-Trx-C20 diacid]) (reading uncertain, Side chain read from the name: eps-Lys(Bis) branched linker, each leg C20 diacid-Trx-gGlu-6xOEG)    84
H[Aib]EGTFTSDVSSYLEEQAAREFIAWLVRGRGSSAEGK([Lys(Bis)-code 2xAEEA-AEEA-γGlu-Trx-C20 diacid]) (reading uncertain, Side chain read from the name: eps-Lys(Bis) branched linker, each leg C20 diacid-Trx-gGlu-2xOEG)    63

**Q:** IC50 lookup needed for H[Aib]EGTFTSDVSSYLEEQAAREFIAWLVRGRGEPPGK([code LysOEG-AEEA-γGlu-Trx-C20 diacid)(OEG-AEEA-γGlu-Trx-C20 diacid]) (reading uncertain, Side chain read from the name: eps-Lys(Bis) branched linker, each leg C20 diacid-Trx-gGlu-2xOEG) , thanks.
**A:** 50
